target: human TSHR (Homo sapiens); construct: expressed in transfected cells; assay: Homogeneous Time Resolved Fluorescence (HTRF) cAMP assay, TSHR cell line; assay type: cell-based; settings: 100% activity = response of 30 mU/ml TSH, 0% = DMSO control; in %
Sequence (P16473 21-764): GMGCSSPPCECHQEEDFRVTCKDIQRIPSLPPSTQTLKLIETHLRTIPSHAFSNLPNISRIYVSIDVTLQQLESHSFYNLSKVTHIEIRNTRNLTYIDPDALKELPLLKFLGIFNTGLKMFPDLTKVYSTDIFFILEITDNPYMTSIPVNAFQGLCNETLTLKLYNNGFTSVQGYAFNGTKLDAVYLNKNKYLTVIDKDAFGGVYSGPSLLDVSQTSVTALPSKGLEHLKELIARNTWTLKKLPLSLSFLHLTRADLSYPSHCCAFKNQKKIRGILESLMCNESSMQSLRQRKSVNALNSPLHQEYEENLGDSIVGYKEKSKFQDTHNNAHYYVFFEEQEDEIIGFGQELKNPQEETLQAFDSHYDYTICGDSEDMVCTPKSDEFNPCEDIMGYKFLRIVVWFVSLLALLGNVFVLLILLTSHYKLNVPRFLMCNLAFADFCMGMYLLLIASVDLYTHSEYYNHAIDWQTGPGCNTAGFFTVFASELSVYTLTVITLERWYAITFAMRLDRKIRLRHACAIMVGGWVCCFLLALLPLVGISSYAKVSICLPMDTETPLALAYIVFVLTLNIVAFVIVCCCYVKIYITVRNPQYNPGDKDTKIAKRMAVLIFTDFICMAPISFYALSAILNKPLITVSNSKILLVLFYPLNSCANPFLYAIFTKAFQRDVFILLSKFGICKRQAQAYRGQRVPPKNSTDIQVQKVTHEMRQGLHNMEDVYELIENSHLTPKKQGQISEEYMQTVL
metric: Maximum Activity compared to TSH

• CCCCN1C(=O)c2ccccc2NC1c1ccc(OC)c(COc2ccc(NC(C)=O)cc2)c1 (stereo not shown) [Structure 16] = 97.95

[A] COc1ccc(C(=O)N(Cc2ccccc2)Cc2ccco2)c(O)c1
[B] COc1ccc(C2Nc3ccccc3C(=O)N2CC(C)(C)C)cc1COc1ccc(NC(C)=O)cc1 (stereo not shown)
Please indicate which item has the smaller measured Maximum Activity compared to TSH: A versus B Output the label that corresponds to your choice.
B
(B: 32.00, A: 96.91)
